system: Collinsella aerofaciens; assay: growth AUC relative to DMSO control (median of replicates) (fraction); higher = more growth (less inhibition), active = hit call of the paper; conditions: 20 µM; 24 h

[
  {
    "compound": "CCC/C(=N\\OCC)C1=C(O)CC(C2CCCSC2)CC1=O (stereo not drawn)",
    "growth AUC": 0.993
  },
  {
    "compound": "O=C(O)Cc1c(Cl)ccc(Cl)c1Cl",
    "growth AUC": 1
  },
  {
    "compound": "Cc1cccc(C)c1N(CC(=O)O)C(=O)CS(=O)(=O)[O-].[Na+]",
    "growth AUC": 0.973
  },
  {
    "compound": "S=C([S-])NCCNC(=S)[S-].[Mn+2]",
    "growth AUC": 1
  },
  {
    "compound": "CCCCCCCC/C=C\\CCCCCCCCCCCC(=O)O",
    "growth AUC": 0.983
  },
  {
    "compound": "Cc1ccc(Cl)cc1",
    "growth AUC": 1
  },
  {
    "compound": "Cc1[nH]n(C)c(=O)c1C(=O)c1ccc(C(F)(F)F)cc1S(C)(=O)=O",
    "growth AUC": 1
  },
  {
    "compound": "COCCCNc1nc(NC(C)C)nc(SC)n1",
    "growth AUC": 0.993
  }
]

* * *

system: Bacteroides caccae; assay: growth AUC relative to DMSO control (median of replicates) (fraction); higher = more growth (less inhibition), active = hit call of the paper; conditions: 20 µM; 24 h

[
  {
    "molecule": "NC(Cn1cncn1)C(=O)O (centres undefined)",
    "growth AUC": "0.985 (inactive)"
  },
  {
    "molecule": "CC(C)c1ccccc1",
    "growth AUC": "1.02 (inactive)"
  },
  {
    "molecule": "COCCCNc1nc(NC(C)C)nc(SC)n1",
    "growth AUC": "0.981 (inactive)"
  },
  {
    "molecule": "S=C([S-])NCCNC(=S)[S-].[Mn+2]",
    "growth AUC": "1.01 (inactive)"
  }
]

* * *

test system: Lactobacillus gasseri; assay: growth AUC relative to DMSO control (median of replicates) (fraction); higher = more growth (less inhibition), active = hit call of the paper; conditions: 20 µM; 24 h
# if value of growth AUC reaches 1, tag Met; if it stays below, tag Not met

[
  {
    "molecule": "c1ccc2cc3c(ccc4ccccc43)cc2c1",
    "assay-target": "Lactobacillus gasseri",
    "discrete-label": "Not met"
  },
  {
    "molecule": "CNc1nc(NC(C)C)nc(SC)n1",
    "assay-target": "Lactobacillus gasseri",
    "discrete-label": "Met"
  },
  {
    "molecule": "CCCCCCCC/C=C\\CCCCCCCC(N)=O",
    "assay-target": "Lactobacillus gasseri",
    "discrete-label": "Not met"
  },
  {
    "molecule": "O=C1NCC[n+]2ccccc21.[Br-]",
    "assay-target": "Lactobacillus gasseri",
    "discrete-label": "Not met"
  },
  {
    "molecule": "NC(=S)Nc1cccc2ccccc12",
    "assay-target": "Lactobacillus gasseri",
    "discrete-label": "Not met"
  },
  {
    "molecule": "CCOc1ccc(C2(C(=O)OC(C#N)c3cccc(Oc4ccccc4)c3)CC2(Cl)Cl)cc1 (configuration not stated)",
    "assay-target": "Lactobacillus gasseri",
    "discrete-label": "Not met"
  },
  {
    "molecule": "C=CCO/N=C(\\CCC)C1=C([O-])CC(C)(C)C(C(=O)OC)C1=O.[Na+] (configuration not stated)",
    "assay-target": "Lactobacillus gasseri",
    "discrete-label": "Not met"
  },
  {
    "molecule": "Cc1cc(N(C)C)nc(Cl)n1",
    "assay-target": "Lactobacillus gasseri",
    "discrete-label": "Not met"
  },
  {
    "molecule": "CCC/C(=N\\OCC)C1=C(O)CC(C2CCCSC2)CC1=O (configuration not stated)",
    "assay-target": "Lactobacillus gasseri",
    "discrete-label": "Not met"
  },
  {
    "molecule": "CC(C)N(C(=O)C(=O)O)c1ccc(F)cc1",
    "assay-target": "Lactobacillus gasseri",
    "discrete-label": "Met"
  },
  {
    "molecule": "COC(=O)Nc1ccc(Cl)c(Cl)c1",
    "assay-target": "Lactobacillus gasseri",
    "discrete-label": "Met"
  },
  {
    "molecule": "C#CCOC(=O)[C@@H](C)Oc1ccc(Oc2ncc(Cl)cc2F)cc1",
    "assay-target": "Lactobacillus gasseri",
    "discrete-label": "Not met"
  },
  {
    "molecule": "Cc1cccc(C)c1O",
    "assay-target": "Lactobacillus gasseri",
    "discrete-label": "Met"
  },
  {
    "molecule": "O=S(=O)(Oc1ccc(Cl)cc1Cl)c1ccccc1",
    "assay-target": "Lactobacillus gasseri",
    "discrete-label": "Met"
  }
]

* * *

system: Bacteroides stercoris; assay: growth AUC relative to DMSO control (median of replicates) (fraction); higher = more growth (less inhibition), active = hit call of the paper; settings: 20 µM; 24 h
List of growth AUC values.

[
  {
    "compound": "c1ccc(CNc2ncnc3nc[nH]c23)cc1",
    "growth AUC": 0.995
  },
  {
    "compound": "Nc1nc2ccccc2[nH]1",
    "growth AUC": 1.01
  },
  {
    "compound": "CCCCOC(=O)C(C)Oc1ccc(Oc2ccc(C(F)(F)F)cn2)cc1 (configuration not stated)",
    "growth AUC": 1.08
  },
  {
    "compound": "CC(C)(C)Nc1nc(N)nc(Cl)n1",
    "growth AUC": 0.991
  },
  {
    "compound": "ClC(COCC(Cl)C(Cl)(Cl)Cl)C(Cl)(Cl)Cl (configuration not stated)",
    "growth AUC": 0.952
  },
  {
    "compound": "CC(C)([CH2][Sn]([CH2]C(C)(C)c1ccccc1)([CH2]C(C)(C)c1ccccc1)[O][Sn]([CH2]C(C)(C)c1ccccc1)([CH2]C(C)(C)c1ccccc1)[CH2]C(C)(C)c1ccccc1)c1ccccc1",
    "growth AUC": 0.969
  },
  {
    "compound": "CC(C)N(C(=O)CS(=O)CC(=O)O)c1ccc(F)cc1 (configuration not stated)",
    "growth AUC": 0.988
  }
]

* * *

test system: Bacteroides clarus; test: growth AUC relative to DMSO control (median of replicates) (fraction); higher = more growth (less inhibition), active = hit call of the paper; details: 20 µM; 24 h
Each record here notes measured growth AUC.

[
  {
    "molecule": "CC(C)(CO)C(O)(CCc1ccc(Cl)cc1)Cn1cncn1 (centres undefined)",
    "growth AUC": 0.998
  },
  {
    "molecule": "C=O",
    "growth AUC": 0.982
  },
  {
    "molecule": "S=C([S-])NCCNC(=S)[S-].S=C([S-])NCCNC(=S)[S-].[Mn+2].[Zn+2]",
    "growth AUC": 1.1
  },
  {
    "molecule": "S=C([S-])NCCNC(=S)[S-].[Zn+2]",
    "growth AUC": 0.989
  },
  {
    "molecule": "CNC(=O)/C(=N/OC)c1ccccc1CO/N=C(C)/C(=N/OC)C(/C)=N/OC",
    "growth AUC": 0.98
  },
  {
    "molecule": "CC1(C)C(C(=O)OC(C#N)c2cccc(Oc3ccccc3)c2)C1C(Br)C(Br)(Br)Br (centres undefined)",
    "growth AUC": 1.04
  },
  {
    "molecule": "CC(C)Nc1nc(N)nc(Cl)n1",
    "growth AUC": 1.03
  },
  {
    "molecule": "O=[N+](Nc1ccccc1)c1ccccc1",
    "growth AUC": 0.966
  },
  {
    "molecule": "COC(=O)C(C)Oc1ccc(Cl)cc1C (centres undefined)",
    "growth AUC": 0.996
  },
  {
    "molecule": "COC(=O)c1c(Cl)nn(C)c1S(=O)(=O)NC(=O)Nc1nc(OC)cc(OC)n1",
    "growth AUC": 1.07
  },
  {
    "molecule": "O=C(O)COc1ccc(Cl)cc1CO",
    "growth AUC": 0.995
  },
  {
    "molecule": "O=C(O)C1(C(=O)Nc2ccc(Cl)cc2Cl)CC1",
    "growth AUC": 0.956
  },
  {
    "molecule": "c1ccc2cc3c(ccc4ccccc43)cc2c1",
    "growth AUC": 1
  },
  {
    "molecule": "FC(F)(F)/N=C1\\SC(=Nc2ccccc2)N(c2ccccc2)\\C1=N\\C(F)(F)F",
    "growth AUC": 0.96
  },
  {
    "molecule": "CCOC(=O)CSc1nc(C(C)(C)C)nn1C(=O)N(C)C",
    "growth AUC": 0.96
  },
  {
    "molecule": "CCCCCCCCOC(=O)COc1cc(Cl)c(Cl)cc1Cl",
    "growth AUC": 1
  },
  {
    "molecule": "CCCCOCN(C(=O)CS(=O)(=O)[O-])c1c(CC)cccc1CC.[Na+]",
    "growth AUC": 0.997
  },
  {
    "molecule": "COc1cc(OC)nc(NC(=O)NS(=O)(=O)N(C)S(C)(=O)=O)n1",
    "growth AUC": 1.05
  },
  {
    "molecule": "CCOc1ccc(C2(C(=O)OC(C#N)c3cccc(Oc4ccccc4)c3)CC2(Cl)Cl)cc1 (centres undefined)",
    "growth AUC": 1.02
  }
]
